# assayName: clinical
# cond: human, in vivo, 10 mg
reportedProperty: Tmax (h)
One number for each entry, in h.

Problem: Requested read-out: Tmax. Entry: CN(C)C/C=C/C(=O)Nc1cc2c(Nc3ccc(F)c(Cl)c3)ncnc2cc1O[C@H]1CCOC1
Result: 4

---

# assayName: clinical
# cond: human, in vivo, 40 mg, CL/Fss
reportedProperty: CL/F (mL/min)
Numbers only, in mL/min.

Problem: Returns the measured CL/F for the input compound. Input: CN(C)C/C=C/C(=O)Nc1cc2c(Nc3ccc(F)c(Cl)c3)ncnc2cc1O[C@H]1CCOC1 [afatinib]
Result: 734

---

# assayName: clinical
# cond: human, in vivo, 10 mg, AUC0–24,ss
reportedProperty: AUC(0-t) (ng·h/mL)
Numbers only, in ng·h/mL.

Problem: Given the entry CN(C)C/C=C/C(=O)Nc1cc2c(Nc3ccc(F)c(Cl)c3)ncnc2cc1O[C@H]1CCOC1 , report its measured AUC(0-t).
Result: 63.7

Data provenance is paper PMC3589659.
